Test system: lipid peroxidation in rat hepatocyte
Experiment: Inhibitory action on lipid peroxidation (rat hepatocyte, TBA color formation, absorbance at 530 nm)
Format: biochemical
Conditions: final concentration 10^-5 M, 37° C., 1 hour, 10 µM
Binary call on Inhibition ratio (at Final Concentration of Tested Compound) 10^-5 M with cut-off 70%: strictly below means label 1, and equality or higher means label 0.

Q: Is Inhibition ratio (at Final Concentration of Tested Compound) 10^-5 M of CSC(=S)N1CCN(Cc2ccccc2N)CC1 strictly below 70%?
Ans: label 0

Q: API: query returns whether the compound falls strictly under 70% in Inhibition ratio (at Final Concentration of Tested Compound) 10^-5 M. Query: CSC(=S)N1CCN(Cc2ccccc2O)CC1
Ans: label 0

Q: Record COc1c(O)c(C)c(CN2CCN(C(=S)SC)CC2)c(O)c1OC : is its Inhibition ratio (at Final Concentration of Tested Compound) 10^-5 M strictly below 70%?
Ans: label 1

Q: Item COc1cccc(CN2CCN(C(=S)SC)CC2)c1OC : Inhibition ratio (at Final Concentration of Tested Compound) 10^-5 M beneath 70%, strictly?
Ans: label 0

Q: Does the reported Inhibition ratio (at Final Concentration of Tested Compound) 10^-5 M of the following compound sit strictly below 70%? CSC(=S)N1CCN(Cc2c(O)c(O)cc3ccc(=O)oc23)CC1
Ans: label 0

Q: Quick check: does CSC(=S)N1CCN(Cc2ccccc2N(C)C)CC1 have Inhibition ratio (at Final Concentration of Tested Compound) 10^-5 M under 70%?
Ans: label 0

Q: Confirm or reject: Inhibition ratio (at Final Concentration of Tested Compound) 10^-5 M of COc1c(OC(C)=O)c(C)c(CN2CCN(C(=S)SC)CC2)c(OC(C)=O)c1OC lies strictly below 70%
Ans: label 0

Q: Is the reported Inhibition ratio (at Final Concentration of Tested Compound) 10^-5 M for COc1cc(CN2CCN(C(=S)S)CC2)cc(OC)c1OC strictly below 70%?
Ans: label 1

Q: Bench note: check whether COc1ccc(OC)c(CN2CCN(C(=S)SC)CC2)c1 shows Inhibition ratio (at Final Concentration of Tested Compound) 10^-5 M below 70%
Ans: label 1

Q: Is Inhibition ratio (at Final Concentration of Tested Compound) 10^-5 M strictly under 70% for the entry CSC(=S)N1CCN(Cc2ccc(O)c(O)c2O)CC1 ?
Ans: label 0

Q: Does Oc1cc(CN2CCN(C(=S)S)CC2)cc(O)c1O have Inhibition ratio (at Final Concentration of Tested Compound) 10^-5 M strictly under 70%?
Ans: label 1

Q: Here's an entry: CCCOC(=O)c1cc(O)c(O)c(O)c1CN1CCN(C(=S)SC)CC1 . Is its Inhibition ratio (at Final Concentration of Tested Compound) 10^-5 M below 70%?
Ans: label 0

Q: Please check: Inhibition ratio (at Final Concentration of Tested Compound) 10^-5 M for CSC(=S)N1CCN(CC(=O)c2ccc(O)c(O)c2)CC1 , strictly under 70% or not?
Ans: label 1

Q: I wonder whether CSC(=S)N1CCN(CC(O)c2ccc(O)c(O)c2)CC1 (stereo not shown) has Inhibition ratio (at Final Concentration of Tested Compound) 10^-5 M below 70%. Can you tell?
Ans: label 1
